Give PBM binding z-score for every item shown.
tested on: THRa:RXRa (NR concentration 90 nM, RXRa partner concentration 90 nM); test: PBM binding z-score (relative to random genomic background probes); higher = stronger binding; sequences stand for … in GC…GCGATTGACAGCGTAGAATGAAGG
Answers are plain numbers.

Recorded results for 2 sequences are shown here.
sequence_input	measured_target	PBM binding z-score
CCTGCTGGGCCATCAGGTCATTGATATCAACGTT	THRa:RXRa (NR concentration 90 nM, RXRa partner concentration 90 nM)	3.19
TCTAGTTGGTCACGGAGTTCACACACGACGGGTA	THRa:RXRa (NR concentration 90 nM, RXRa partner concentration 90 nM)	1.66

// next entry
Prompt line: What is its PBM binding z-score for THRa:RXRa (NR concentration 90 nM, RXRa partner concentration 90 nM)? Entry: CCTCCAAGGTCAAGGTCAGTGAAAGAGACTCGAA
Response line: 4.18
